Tested on: ABCG2 (Homo sapiens)
Experiment: Activation of ABCG2 ATPase activity (unknown origin) expressed in baculovirus infected Sf9 insect cells using ATP as substrate measured after 1 hr by colorimetric assay
Conditions: probe ATP
Let's look at some compounds and their measured EC50 at 1 h.
Number in nM, nothing else.

Solved entries (count: 4):
>  <Compound>
COc1ccc(C(=O)N2CCc3c([nH]c4ccccc34)C2c2ccc(Cl)c(Cl)c2)cc1 (stereo not given)

>  <Subject of test>
ABCG2 (Homo sapiens)

>  <Value measured>
134

$$$$
>  <Compound>
COc1ccc2c3c([nH]c2c1)[C@H](C=C(C)C)N1C(=O)[C@@H]2CCCN2C(=O)[C@@H]1C3 [FUMITREMORGIN]

>  <Subject of test>
ABCG2 (Homo sapiens)

>  <Value measured>
412

$$$$
>  <Compound>
COC(=O)c1ccc(C(=O)Nc2ccc(CCN3CCc4cc(OC)c(OC)cc4C3)cc2)cc1NC(=O)c1ccc2ccccc2n1

>  <Subject of test>
ABCG2 (Homo sapiens)

>  <Value measured>
105

$$$$
>  <Compound>
CCC(=O)c1ccc(-c2cn(-c3ccc(CCN4CCc5cc(OC)c(OCCOCCOCCOC)cc5C4)cc3)nn2)cc1NC(=O)c1ccc2ccccc2n1

>  <Subject of test>
ABCG2 (Homo sapiens)

>  <Value measured>
52

$$$$

Now look at this entry.
Ask | # EC50 at 1 h lookup, item COc1ccc(/C(C#N)=C/c2ccc(N3CCC(O)CC3)s2)cc1OC
Reply | 327
